Test system: NBD1
assay method text: Aggregation analysis of NBD1 thermal stability by differential static light scattering (DSLS)
Format: binding, Human
measurement conditions: 100 μM compound; ΔTagg versus DMSO control
Excerpt: Purified recombinant NBD1 was produced using previously described methods (A. Schmidt, J. L. Mendoza, P. J. Thomas (2011) Biochemical and Biophysical Approaches to Probe CFTR Structure (365-376) M. D. Amaral, K. Kunzelmann (eds.), Cystic Fibrosis, Methods in Molecular Biology 741, Springer Science+Business Media). […]
measurement label: DSLS NBD1/3D Human Stability delta-T (° C.) @ 100 (μM)

INSERT INTO measurements (compound, subject_of_test, value_observed) VALUES
  ('Cc1c[nH]c2cc(F)c(Oc3ccc(F)c(-c4ccn(Cc5cnc(CCC(N)=O)s5)n4)c3)cc12 [Compound 7]', 'NBD1', 'C (C: ≤4° C.)'),
  ('OC(c1c[nH]c(-c2cccc(Oc3ccc4[nH]ccc4c3)c2)n1)c1nccs1 (stereo not shown) [Compound 21]', 'NBD1', 'B (B: 4-8° C.)'),
  ('Cc1ncc(Cc2nnc(-c3cccc(Oc4ccc5[nH]ccc5c4)c3)[nH]2)s1 [Compound 18]', 'NBD1', 'B (B: 4-8° C.)'),
  ('Cn1cc(Cc2cnc(-c3cccc(Oc4ccc5[nH]ccc5c4)c3)[nH]2)cn1 [Compound 28]', 'NBD1', 'C (C: ≤4° C.)');

====

System: NBD1
assay method text: Aggregation analysis of NBD1 thermal stability by differential static light scattering (DSLS)
Type: binding, Human
measurement conditions: 100 μM compound; ΔTagg versus DMSO control
measurement label: DSLS NBD1/3D Human Stability delta-T (° C.) @ 100 (μM)

INSERT INTO results (compound, value_observed) VALUES
  ('CC(C1=NN(c2cc(Oc3c(F)cc4[nH]ccc4c3F)ccc2F)C(=O)C1)c1cccc(CCC(=O)O)c1F (stereo not drawn)', 'B (B: 4-8° C.)'),
  ('Cc1cnc(Cc2nnc(-c3cccc(Oc4ccc5[nH]ccc5c4)c3)[nH]2)s1', 'C (C: ≤4° C.)'),
  ('O[C@H](Cc1cncs1)c1c[nH]c(-c2cccc(Oc3ccc4[nH]ccc4c3)c2)n1 (single isomer, unassigned)', 'B (B: 4-8° C.)'),
  ('CC(c1cccc(CCC(=O)O)c1F)c1nc(-c2cc(Oc3c(F)cc4[nH]ccc4c3F)ccc2F)n2ccccc12 (stereo not drawn)', 'C (C: ≤4° C.)'),
  ('CN(C)CCNC(=O)c1c(Oc2cccc(-c3nnc(C(O)c4cncs4)[nH]3)c2)ccc2[nH]ccc12 (stereo not drawn)', 'C (C: ≤4° C.)'),
  ('Cc1c(Oc2ccc(F)c(-c3nc(Cc4csc(CCC(=O)O)c4)c[nH]3)c2)c(F)cc2[nH]ccc12', 'B (B: 4-8° C.)'),
  ('COc1cc(C(C)c2cccc(CCC(=O)O)c2F)nn1-c1cc(Oc2c(F)cc3[nH]ccc3c2F)ccc1F (stereo not drawn)', 'B (B: 4-8° C.)'),
  ('Cn1nccc1C(O)c1cnc(-c2cccc(Oc3ccc4[nH]ccc4n3)c2)[nH]1 (stereo not drawn)', 'C (C: ≤4° C.)'),
  ('Cc1c(Oc2cccc(-c3nn(Cc4cccc(CCC(=O)O)c4)cc3F)c2)c(F)cc2[nH]ccc12', 'B (B: 4-8° C.)'),
  ('CSc1cc(C(C)c2cccc(CCC(=O)O)c2F)nn1-c1cc(Oc2c(F)cc3[nH]ccc3c2F)ccc1F (stereo not drawn)', 'C (C: ≤4° C.)'),
  ('Cn1cc(C(O)c2cnc(-c3cccc(Oc4ccc5[nH]ccc5n4)c3)[nH]2)cn1 (stereo not drawn)', 'C (C: ≤4° C.)'),
  ('CC(c1noc(-c2cc(Oc3c(F)cc4[nH]ccc4c3F)ccc2F)n1)c1cccc(CCC(=O)O)c1F (stereo not drawn)', 'B (B: 4-8° C.)'),
  ('Cc1ncc(C(O)c2nnc(-c3cccc(Oc4ccc5[nH]cnc5c4)c3)[nH]2)s1 (stereo not drawn)', 'C (C: ≤4° C.)'),
  ('CC(c1cc(N)n(-c2cc(Oc3c(F)cc4[nH]ccc4c3F)ccc2F)n1)c1cccc(CCC(=O)O)c1F (stereo not drawn)', 'B (B: 4-8° C.)');

====

Tested on: NBD1
assay method text: Aggregation analysis of NBD1 thermal stability by differential static light scattering (DSLS)
Format: binding, Human
measurement conditions: 100 μM compound; ΔTagg versus DMSO control
measurement label: DSLS NBD1/3D Human Stability delta-T (° C.) @ 100 (μM)

INSERT INTO measurements (compound, value_observed) VALUES
  ('Cn1cc(Cc2nnc(-c3cccc(Oc4ccc5[nH]ccc5c4)c3)[nH]2)cn1 [Compound 25]', 'C (C: ≤4° C.)'),
  ('CC(c1cccc(CCC(=O)O)c1F)c1nc(-c2cc(Oc3c(F)cc4[nH]ccc4c3F)ccc2F)n2c1CCCC2 (stereo not shown) [Compound 47]', 'C (C: ≤4° C.)'),
  ('Cc1ncc(C(O)c2nnc(-c3cccc(Oc4ccc5[nH]ccc5c4CO)c3)[nH]2)s1 (stereo not shown) [Compound 37]', 'B (B: 4-8° C.)'),
  ('Cc1ncc(C(O)c2nnc(-c3cccc(Oc4ccc5[nH]ccc5c4C(N)=O)c3)[nH]2)s1 (stereo not shown) [Compound 39]', 'B (B: 4-8° C.)');

====

System: NBD1
assay method text: Aggregation analysis of NBD1 thermal stability by differential static light scattering (DSLS)
Assay type: binding, Human
measurement conditions: 100 μM compound; ΔTagg versus DMSO control
measurement label: DSLS NBD1/3D Human Stability delta-T (° C.) @ 100 (μM)

INSERT INTO measurements (compound, value_observed) VALUES
  ('Cn1cc(C(O)c2cnc(-c3cccc(Oc4ccc5[nH]ccc5c4)c3)[nH]2)cn1 (stereo not shown)', 'B (B: 4-8° C.)'),
  ('c1cc(Oc2ccc3[nH]ccc3c2)cc(-c2nnc(Cc3ccsc3)[nH]2)c1', 'C (C: ≤4° C.)'),
  ('CCOc1cc(C(C)c2cccc(CCC(=O)O)c2F)nn1-c1cc(Oc2c(F)cc3[nH]ccc3c2F)ccc1F (stereo not shown)', 'B (B: 4-8° C.)'),
  ('Cn1nccc1C(O)c1cnc(-c2cccc(Oc3ccc4[nH]cnc4c3)c2)[nH]1 (stereo not shown)', 'C (C: ≤4° C.)'),
  ('Cc1c(Oc2ccc(F)c(-c3nc(Cc4csc(CCC(=O)O)n4)c[nH]3)c2)c(F)cc2[nH]ccc12', 'B (B: 4-8° C.)'),
  ('O=C(O)CCc1cccc(Cc2cc(NCCO)n(-c3cc(Oc4c(F)cc5[nH]ccc5c4F)ccc3F)n2)c1', 'B (B: 4-8° C.)'),
  ('Cn1nccc1C(O)c1cnc(-c2cccc(Oc3ccc4[nH]ccc4c3)c2)[nH]1 (stereo not shown)', 'C (C: ≤4° C.)'),
  ('Cc1cc(Cc2nnc(-c3cccc(Oc4cc5cc[nH]c5cn4)c3)[nH]2)cs1', 'C (C: ≤4° C.)'),
  ('O=C(NCC(O)C(F)(F)F)c1c(Oc2cccc(-c3nnc(C(O)c4cncs4)[nH]3)c2)ccc2[nH]ccc12 (stereo not shown)', 'B (B: 4-8° C.)'),
  ('O[C@@H](Cc1cncs1)c1c[nH]c(-c2cccc(Oc3ccc4[nH]ccc4c3)c2)n1 (single isomer, unassigned)', 'C (C: ≤4° C.)'),
  ('NC(=O)CCc1ncc(Cc2cnc(-c3cc(Oc4c(F)cc5[nH]ccc5c4F)ccc3F)[nH]2)s1', 'C (C: ≤4° C.)'),
  ('c1cc(Oc2ccc3[nH]ccc3c2)cc(-c2nnc(Cc3cscn3)[nH]2)c1', 'C (C: ≤4° C.)'),
  ('Cc1csc(Cc2nnc(-c3cccc(Oc4ccc5[nH]ccc5c4)c3)[nH]2)n1', 'C (C: ≤4° C.)'),
  ('Cc1nc(Cc2nnc(-c3cccc(Oc4ccc5[nH]ccc5c4)c3)[nH]2)cs1', 'C (C: ≤4° C.)'),
  ('Clc1ccc(Cc2n[nH]c(-c3cccc(Oc4cc5cc[nH]c5cn4)c3)n2)s1', 'C (C: ≤4° C.)'),
  ('OCc1c(Oc2cccc(-c3nnc(C(O)c4cncs4)[nH]3)c2)ccc2[nH]ccc12 (stereo not shown)', 'B (B: 4-8° C.)');
